Examples of binders with documented kon follow.
- assay system: T1, CA-14 bound to cannabidiol (CA-14-CBD complex) (non-covalently bound cannabidiol (CBD); AviTag biotinylated by BirA where immobilised (ELISA))
- T1 construct: Same polypeptide as m1, pre-equilibrated with the small molecule cannabidiol; also called CBD-CA-14 complex; not shown: C-terminal AviTag and His tag
- measurement notes: BLI (Octet RED96), biotinylated DB on streptavidin sensor, 1 uM CA-14 pre-equilibrated with CBD
API: value field is a number in M⁻¹ s⁻¹; no unit string.

Previously resolved entries follow.
dimerization binder DB-18 (VHH, AviTag biotinylated by BirA (BLI), Purified and tagged in BLI (biotinylated) and SEC; also called 1DB-18; not shown: C-terminal AviTag and His tag (purified form)) VHH: EVQLQASGGGFVQPGGSLRLSCAASGGYSRADDMGWFRQAPGKEREFVSAISFGETDSFYYADSVKGRFTISRDNSKNTVYLQMNSLRAEDTATYYCAYHNYTNMFEYWGQGTQVTVSS :: 41000
dimerization binder DB-11 (VHH, AviTag biotinylated by BirA (BLI), Purified, tagged and biotinylated in BLI; not shown: C-terminal AviTag and His tag (purified form)) VHH: EVQLQASGGGFVQPGGSLRLSCAASGTTSDNDTMGWFRQAPGKEREFVSAISWNGGRDEYYADSVKGRFTISRDNSKNTVYLQMNSLRAEDTATYYCAYQDNRSWQEYWGQGTQVTVSS :: 61000
dimerization binder DB-21 (VHH, AviTag biotinylated by BirA (BLI), Purified and tagged in BLI (biotinylated) and SEC; the form used in the sandwich ELISA-like assay is not clearly stated (same id used for all); not shown: C-terminal AviTag and His tag (purified form)) VHH: EVQLQASGGGFVQPGGSLRLSCAASGTTYGQTNMGWFRQAPGKEREFVSAISGLQGRDLYYADSVKGRFTISRDNSKNTVYLQMNSLRAEDTATYYCAFHDFLRMWEYWGQGTQVTVSS :: 11000

What does the data say about its kon? Entry: dimerization binder DB-6 (VHH, AviTag biotinylated by BirA (BLI), Purified, tagged and biotinylated in BLI; not shown: C-terminal AviTag and His tag (purified form)) VHH: EVQLQASGGGFVQPGGSLRLSCAASGRFSWGEEMGWFRQAPGKEREFVSAISWAATPWQYYADSVKGRFTISRDNSKNTVYLQMNSLRAEDTATYYCADEWHIGHVSYWGQGTQVTVSS
9600
